Tested on: NCI-H441
Experiment: relative viability (nuclei count vs DMSO), 5 days (fraction); higher = more cells survive
Details: first compound 0.04 µM
Endpoint label: relative viability
I only need the number, thanks.

{"Compound": "COc1cc(N2CCC(C(N)=O)CC2)ccc1Nc1nc(N)c(Cl)c(Nc2ccccc2S(=O)(=O)C(C)C)n1 [HG-5-88-01] + COc1cc2c(Oc3ccc(NC(=O)C4(C(=O)Nc5ccc(F)cc5)CC4)cc3F)ccnc2cc1OCCCN1CCOCC1 [Foretinib] (partner 0.25 µM)", "Experimental system": "NCI-H441", "Measurement": 0.889}

Now, please, on to the next compound.
Input: Give the measured relative viability of COc1cc(N2CCC(C(N)=O)CC2)ccc1Nc1nc(N)c(Cl)c(Nc2ccccc2S(=O)(=O)C(C)C)n1 [HG-5-88-01] + Nc1ncn([C@H]2C[C@H](O)[C@@H](CO)O2)c(=O)n1 [Decitabine] (partner 2 µM) .
Output: 0.235

----------
Parameter: relative viability. Scope: all listed entries.
Test system: COR-L 105
Assay: relative viability (nuclei count vs DMSO), 5 days (fraction); higher = more cells survive
Settings: first compound 0.8 µM

{"Molecule": "CCCCCCCCCCCC1=C(O)C(=O)C=C(O)C1=O [Embelin] + COc1cc2c(Oc3ccc(NC(=O)C4(C(=O)Nc5ccc(F)cc5)CC4)cc3F)ccnc2cc1OCCCN1CCOCC1 [Foretinib] (partner 0.25 µM)", "Endpoint label": "relative viability", "Measurement": 1.05}
{"Molecule": "CCCCCCCCCCCC1=C(O)C(=O)C=C(O)C1=O [Embelin] + CS(=O)(=O)CCNCc1ccc(-c2ccc3ncnc(Nc4ccc(OCc5cccc(F)c5)c(Cl)c4)c3c2)o1 [Lapatinib] (partner 2 µM)", "Endpoint label": "relative viability", "Measurement": 0.436}
{"Molecule": "CCCCCCCCCCCC1=C(O)C(=O)C=C(O)C1=O [Embelin] + Cc1cc(Nc2cc(N3CCN(C)CC3)nc(Sc3ccc(NC(=O)C4CC4)cc3)n2)n[nH]1 [Tozasertib] (partner 0.1 µM)", "Endpoint label": "relative viability", "Measurement": 0.386}

Input: Give the measured relative viability of CCCCCCCCCCCC1=C(O)C(=O)C=C(O)C1=O [Embelin] + CCNC(=O)c1noc(-c2cc(C(C)C)c(O)cc2O)c1-c1ccc(CN2CCOCC2)cc1 [Luminespib] (partner 0.01 µM) .
Output: 0.894

Input: Give the measured relative viability of CCCCCCCCCCCC1=C(O)C(=O)C=C(O)C1=O [Embelin] + COc1cccc2cc(-c3nc([C@H]4CC[C@H](C(=O)O)CC4)n4ncnc(N)c34)[nH]c12 [OSI-027] (partner 0.5 µM) .
Output: 0.836

----------
Test system: NCI-H1651
Experiment: relative viability (nuclei count vs DMSO), 5 days (fraction); higher = more cells survive
Details: first compound 4 µM
Hi all, reminder that labels come from relative viability, split as bottom end: < 0.6; midrange: ≥ 0.6 and < 0.7; top end: ≥ 0.7

Worked examples follow.
{"Molecule": "Clc1ccc(Nc2nnc(Cc3ccncc3)c3ccccc23)cc1 [Vatalanib] + CC(=O)Nc1cccc(-n2c(=O)n(C3CC3)c(=O)c3c(Nc4ccc(I)cc4F)n(C)c(=O)c(C)c32)c1 [Trametinib] (partner 0.02 µM)", "Class name": "top end"}
{"Molecule": "C[C@@H]1CN(CC(=O)Nc2ccc3c(c2)Cc2cccc(-c4cc(=O)cc(N5CCOCC5)o4)c2S3)C[C@H](C)O1 + CCNC(=O)c1noc(-c2cc(C(C)C)c(O)cc2O)c1-c1ccc(CN2CCOCC2)cc1 [Luminespib] (partner 0.01 µM)", "Class name": "midrange"}
{"Molecule": "Clc1ccc(Nc2nnc(Cc3ccncc3)c3ccccc23)cc1 [Vatalanib] + Cc1cc(Nc2cc(N3CCN(C)CC3)nc(Sc3ccc(NC(=O)C4CC4)cc3)n2)n[nH]1 [Tozasertib] (partner 0.1 µM)", "Class name": "midrange"}
{"Molecule": "C[C@@H]1CN(CC(=O)Nc2ccc3c(c2)Cc2cccc(-c4cc(=O)cc(N5CCOCC5)o4)c2S3)C[C@H](C)O1 + CS(=O)(=O)N1CCN(Cc2cc3nc(-c4cccc5[nH]ncc45)nc(N4CCOCC4)c3s2)CC1 [Pictilisib] (partner 1 µM)", "Class name": "bottom end"}

Input: Each molecule maps to one class by relative viability. Which class for Clc1ccc(Nc2nnc(Cc3ccncc3)c3ccccc23)cc1 [Vatalanib] + O=C(c1cc(Cc2n[nH]c(=O)c3ccccc23)ccc1F)N1CCN(C(=O)C2CC2)CC1 [Olaparib] (partner 8 µM) ?
Output: bottom end

Input: Each molecule maps to one class by relative viability. Which class for C[C@@H]1CN(CC(=O)Nc2ccc3c(c2)Cc2cccc(-c4cc(=O)cc(N5CCOCC5)o4)c2S3)C[C@H](C)O1 + CS(=O)(=O)CCNCc1ccc(-c2ccc3ncnc(Nc4ccc(OCc5cccc(F)c5)c(Cl)c4)c3c2)o1 [Lapatinib] (partner 2 µM) ?
Output: top end

Input: Each molecule maps to one class by relative viability. Which class for Clc1ccc(Nc2nnc(Cc3ccncc3)c3ccccc23)cc1 [Vatalanib] + Nc1ncn([C@H]2C[C@H](O)[C@@H](CO)O2)c(=O)n1 [Decitabine] (partner 2 µM) ?
Output: midrange

Input: Each molecule maps to one class by relative viability. Which class for C[C@@H]1CN(CC(=O)Nc2ccc3c(c2)Cc2cccc(-c4cc(=O)cc(N5CCOCC5)o4)c2S3)C[C@H](C)O1 + Cc1nc(Nc2ncc(C(=O)Nc3c(C)cccc3Cl)s2)cc(N2CCN(CCO)CC2)n1 [Dasatinib] (partner 0.075 µM) ?
Output: bottom end

Input: Each molecule maps to one class by relative viability. Which class for COc1cc(N2CCC(C(N)=O)CC2)ccc1Nc1nc(N)c(Cl)c(Nc2ccccc2S(=O)(=O)C(C)C)n1 [HG-5-88-01] + CS(=O)(=O)N1CCN(Cc2cc3nc(-c4cccc5[nH]ncc45)nc(N4CCOCC4)c3s2)CC1 [Pictilisib] (partner 1 µM) ?
Output: midrange

----------
Test system: HCC-366
Test: relative viability (nuclei count vs DMSO), 5 days (fraction); higher = more cells survive
Conditions: first compound 0.01 µM
Parameter: relative viability. Scope: all listed entries.
I only need the number, thanks.

Look over these answered cases.
{"Compound": "CC(C)Oc1cc(Nc2nc(N[C@@H](C)c3ccc(F)cn3)ncc2Cl)n[nH]1 [AZ23] + Cc1nc(Nc2ncc(C(=O)Nc3c(C)cccc3Cl)s2)cc(N2CCN(CCO)CC2)n1 [Dasatinib] (partner 0.075 µM)", "Measurement": 0.58}
{"Compound": "CC(C)Oc1cc(Nc2nc(N[C@@H](C)c3ccc(F)cn3)ncc2Cl)n[nH]1 [AZ23] + Cc1nc(NC(=O)N2CCC[C@H]2C(N)=O)sc1-c1ccnc(C(C)(C)C(F)(F)F)c1 [Alpelisib] (partner 2 µM)", "Measurement": 0.391}
{"Compound": "CC(C)Oc1cc(Nc2nc(N[C@@H](C)c3ccc(F)cn3)ncc2Cl)n[nH]1 [AZ23] + CC(=O)Nc1cccc(-n2c(=O)n(C3CC3)c(=O)c3c(Nc4ccc(I)cc4F)n(C)c(=O)c(C)c32)c1 [Trametinib] (partner 0.02 µM)", "Measurement": 0.334}
{"Compound": "CC(C)Oc1cc(Nc2nc(N[C@@H](C)c3ccc(F)cn3)ncc2Cl)n[nH]1 [AZ23] + C[C@]1(O)C[C@@H](c2nc(-c3ccc4ccc(-c5ccccc5)nc4c3)c3c(N)nccn32)C1 [Linsitinib] (partner 1 µM)", "Measurement": 0.596}
{"Compound": "CC(C)Oc1cc(Nc2nc(N[C@@H](C)c3ccc(F)cn3)ncc2Cl)n[nH]1 [AZ23] + COc1cc2c(Oc3ccc(NC(=O)C4(C(=O)Nc5ccc(F)cc5)CC4)cc3F)ccnc2cc1OCCCN1CCOCC1 [Foretinib] (partner 0.25 µM)", "Measurement": 1.13}
{"Compound": "CC(C)Oc1cc(Nc2nc(N[C@@H](C)c3ccc(F)cn3)ncc2Cl)n[nH]1 [AZ23] + NC(=O)Nc1cc(-c2cccc(F)c2)sc1C(=O)N[C@H]1CCCNC1 [AZD7762] (partner 0.2 µM)", "Measurement": 0.239}

Now, please, on to the next compound.
Input: Give the measured relative viability of CC(C)Oc1cc(Nc2nc(N[C@@H](C)c3ccc(F)cn3)ncc2Cl)n[nH]1 [AZ23] + CS(=O)(=O)CCNCc1ccc(-c2ccc3ncnc(Nc4ccc(OCc5cccc(F)c5)c(Cl)c4)c3c2)o1 [Lapatinib] (partner 2 µM) .
Output: 0.905

----------
Test system: LK-2
Assay: relative viability (nuclei count vs DMSO), 5 days (fraction); higher = more cells survive
Conditions: first compound 4 µM
Parameter: relative viability. Scope: all listed entries.
I only need the number, thanks.

{"Compound": "C[C@@H]1CN(CC(=O)Nc2ccc3c(c2)Cc2cccc(-c4cc(=O)cc(N5CCOCC5)o4)c2S3)C[C@H](C)O1 + C[C@@H](Oc1cc(-c2cnn(C3CCNCC3)c2)cnc1N)c1c(Cl)ccc(F)c1Cl [Crizotinib] (partner 1 µM)", "relative viability": 0.191}
{"Compound": "C[C@@H]1CN(CC(=O)Nc2ccc3c(c2)Cc2cccc(-c4cc(=O)cc(N5CCOCC5)o4)c2S3)C[C@H](C)O1 + Cc1cc(Nc2cc(N3CCN(C)CC3)nc(Sc3ccc(NC(=O)C4CC4)cc3)n2)n[nH]1 [Tozasertib] (partner 0.1 µM)", "relative viability": 0.17}
{"Compound": "Clc1ccc(Nc2nnc(Cc3ccncc3)c3ccccc23)cc1 [Vatalanib] + Cc1cc(Nc2cc(N3CCN(C)CC3)nc(Sc3ccc(NC(=O)C4CC4)cc3)n2)n[nH]1 [Tozasertib] (partner 0.1 µM)", "relative viability": 0.203}

Input: Give the measured relative viability of COc1cc(N2CCC(C(N)=O)CC2)ccc1Nc1nc(N)c(Cl)c(Nc2ccccc2S(=O)(=O)C(C)C)n1 [HG-5-88-01] + N=C(N)NC(=N)NCCc1ccccc1 [Phenformin] (partner 250 µM) .
Output: 0.198
